molecular target: human EP4 receptor (Homo sapiens); construct: expressed in transfected cells; assay: Binding ability to human EP receptors ([3H]PGE2 displacement), EP4; settings: membranes expressing human EP4; [3H]PGE2 1 nM; Cheng-Prusoff; read-out: pKi (M) EP4 (converted)
measurement kind: Ki

Lookup: Give its Ki value. Item: O=C(O)CCc1cccc(NC(=O)c2cccc(-c3ccccc3)n2)c1
Found: > 1e-05 M

Lookup: What measured Ki goes with CC(=O)c1cccc(-c2ccc(C(=O)Nc3cccc(CC(=O)O)c3)o2)c1 ?
Found: > 1e-05 M

Lookup: For the compound O=C(O)Cc1cccc(NC(=O)c2ccc(-c3ccc(Cl)cc3)o2)c1 , what Ki is on record?
Found: > 1e-05 M

Lookup: # Ki lookup, item O=C(Nc1cccc(Cc2nnn[nH]2)c1)c1cccc(-c2ccccc2)n1
Found: > 1e-05 M

Lookup: I'd like to know its Ki. The compound in question is O=C(O)/C=C/c1cccc(NC(=O)c2cccc(-c3ccccc3)n2)c1
Found: < 1e-07 M

Lookup: Ki for O=C(O)Cc1cccc(NC(=O)c2ccc(-c3cccc(C(F)(F)F)c3)o2)c1 ?
Found: > 1e-05 M

Lookup: Sample O=C(O)/C=C/c1cccc(NC(=O)c2cc(-c3ccccc3)ccc2F)c1 — what was its Ki?
Found: > 1e-05 M

Lookup: I would be grateful if you could share the reported Ki for O=C(O)COc1cccc(NC(=O)c2cccc(-c3cccc(Cl)c3)n2)c1 .
Found: < 1e-07 M

Lookup: Value lookup for Ki; key = Cc1cc(C(=O)Nc2cccc(CC(=O)O)c2)sc1-c1ccccc1
Found: > 1e-05 M

----------
molecular target: human EP4 receptor (Homo sapiens); construct: expressed in transfected cells; test: Binding ability to human EP receptors ([3H]PGE2 displacement), EP4; conditions: membranes expressing human EP4; [3H]PGE2 1 nM; Cheng-Prusoff; read-out: pKi (M) EP4 (converted)
For each record, write down the corresponding Ki.

Lookup: Notebook entry, human EP4 receptor (Homo sapiens) assay: Ki of Cc1ccc(-c2ccc(C(=O)Nc3cccc(CC(=O)O)c3)o2)cc1 = ?
Found: > 1e-05 M

Lookup: Notebook entry, human EP4 receptor (Homo sapiens) assay: Ki of O=C(O)c1ccc2cc(NC(=O)c3ccc(-c4ccccc4)o3)ccc2c1 = ?
Found: > 1e-05 M

Lookup: Query the reported Ki for human EP4 receptor (Homo sapiens); item: O=C(O)COc1cccc(NC(=O)c2cccc(-c3ccc(F)cc3)n2)c1
Found: < 1e-06 M

Lookup: Ki / human EP4 receptor (Homo sapiens) / O=C(O)CCc1cccc(NC(=O)c2cccc(-c3cc(Cl)cc(Cl)c3)n2)c1
Found: > 1e-05 M

Lookup: # query: Ki | item O=C(O)Cc1cccc(NC(=O)c2cccc(-c3ccccc3)n2)c1 | system: human EP4 receptor (Homo sapiens)
Found: > 1e-05 M

----------
Target: human EP2 prostanoid receptors (Homo sapiens, UniProt P43116)
Construct: expressed in transfected cells; host or cells: HEK-293
Sequence (P43116 whole entry): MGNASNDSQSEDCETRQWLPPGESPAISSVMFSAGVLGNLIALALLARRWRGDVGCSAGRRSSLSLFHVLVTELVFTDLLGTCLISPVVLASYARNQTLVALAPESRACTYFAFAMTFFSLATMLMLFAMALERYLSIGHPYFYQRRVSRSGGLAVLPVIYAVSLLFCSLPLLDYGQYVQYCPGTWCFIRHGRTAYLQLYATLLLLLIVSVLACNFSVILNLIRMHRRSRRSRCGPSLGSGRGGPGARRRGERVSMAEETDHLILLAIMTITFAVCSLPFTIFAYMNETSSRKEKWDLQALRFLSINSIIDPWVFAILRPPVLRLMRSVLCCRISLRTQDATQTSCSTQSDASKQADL
Experiment: Agonist activity at recombinant human EP2 prostanoid receptors (cAMP in HEK-293 clones)
Format: cell-based
Conditions: functional classification at EP2
Protocol: Culture media was Minimal essential media (MEM), supplemented with 10% foetal bovine serum, 100 U/ml penicillin, […] streptomycin, 2.5 μg/ml fungizone, 2mM glutamine. Cells were cultured to confluency (3-4 days) prior to use. […] Stimulated cAMP levels were determined by radioligand displacement binding. […] Antagonists affinities (pA2 values) were determined assuming a slope of unity and the […]-Schild equation, where pA2=log [concentration ratio-1]-log[antagonist].
measurement kind: activity (EP2 part)

Would you please look over these solved cases?
structure notation	system	activity (EP2 part)
O=C(Nc1cccc(Cc2nnn[nH]2)c1)c1cccc(-c2ccc(F)cc2)n1	human EP2 prostanoid receptors (Homo sapiens, UniProt P43116)	EP2 Agonist
O=C(O)COc1cccc(NC(=O)c2cccc(-c3cc(Cl)cc(Cl)c3)n2)c1	human EP2 prostanoid receptors (Homo sapiens, UniProt P43116)	EP2 Agonist/
O=C(O)COc1cccc(NC(=O)c2ccc(-c3ccc(Cl)cc3)o2)c1	human EP2 prostanoid receptors (Homo sapiens, UniProt P43116)	EP2 Agonist
O=C(Nc1cccc(Cc2nnn[nH]2)c1)c1cccc(-c2cccc(F)c2)n1	human EP2 prostanoid receptors (Homo sapiens, UniProt P43116)	EP2 Agonist
O=C(O)/C=C/c1cccc(NC(=O)c2cccc(-c3ccc(F)cc3)n2)c1	human EP2 prostanoid receptors (Homo sapiens, UniProt P43116)	EP2 Agonist
O=C(Nc1cccc(Cc2nnn[nH]2)c1)c1ccc(-c2ccc(Cl)cc2)o1	human EP2 prostanoid receptors (Homo sapiens, UniProt P43116)	EP2 Agonist
O=C(O)COc1cccc(NC(=O)c2ccc(-c3cccc(F)c3)o2)c1	human EP2 prostanoid receptors (Homo sapiens, UniProt P43116)	EP2 Agonist

Please find the next molecule below.
Lookup: I am curious: what activity (EP2 part) value has been reported for O=C(O)COc1cccc(NC(=O)c2cccc(-c3cccc(Cl)c3)n2)c1 ?
Found: EP2 Agonist/

----------
target: human EP4 receptor (Homo sapiens, UniProt P35408); construct: expressed in transfected cells; assay: Binding ability to human EP receptors ([3H]PGE2 displacement), EP4; conditions: membranes expressing human EP4; [3H]PGE2 1 nM; Cheng-Prusoff; read-out: pKi (M) EP4 (converted)
Sequence (P35408 whole entry): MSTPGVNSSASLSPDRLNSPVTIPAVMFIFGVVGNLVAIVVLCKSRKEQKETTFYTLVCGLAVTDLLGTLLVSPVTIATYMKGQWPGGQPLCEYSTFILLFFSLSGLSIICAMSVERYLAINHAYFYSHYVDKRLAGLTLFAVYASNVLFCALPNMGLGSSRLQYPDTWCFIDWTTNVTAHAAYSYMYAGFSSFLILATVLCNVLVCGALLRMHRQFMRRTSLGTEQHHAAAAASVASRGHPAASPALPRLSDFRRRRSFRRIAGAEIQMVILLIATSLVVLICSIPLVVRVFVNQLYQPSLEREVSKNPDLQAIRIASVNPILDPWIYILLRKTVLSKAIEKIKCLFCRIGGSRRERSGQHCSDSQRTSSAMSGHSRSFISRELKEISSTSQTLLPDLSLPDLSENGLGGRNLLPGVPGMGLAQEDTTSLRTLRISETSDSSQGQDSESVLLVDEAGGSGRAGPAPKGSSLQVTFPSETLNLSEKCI
measurement kind: Ki

Lookup: Can you look up Ki on human EP4 receptor (Homo sapiens, UniProt P35408) for O=C(O)/C=C/c1cccc(NC(=O)c2csc(-c3cccc(F)c3)n2)c1 [Compound 116] ?
Found: > 1e-05 M

Lookup: Under human EP4 receptor (Homo sapiens, UniProt P35408): Ki value of O=C(O)Cc1cccc(NC(=O)c2cccc(-c3cccc(F)c3)n2)c1 [Compound 113] ?
Found: > 1e-05 M

Lookup: Recorded Ki for O=C(O)Cc1cccc(NC(=O)c2ccc(-c3ccc4c(c3)OCO4)o2)c1 [Compound 36] with human EP4 receptor (Homo sapiens, UniProt P35408), please?
Found: > 1e-05 M

Lookup: What reported Ki corresponds to COc1ccc(-c2ccc(C(=O)Nc3cccc(CC(=O)O)c3)o2)cc1 [Compound 12] on human EP4 receptor (Homo sapiens, UniProt P35408)?
Found: > 1e-05 M

Lookup: Request: Ki, test system human EP4 receptor (Homo sapiens, UniProt P35408), entry Cc1cccc(-c2ccc(C(=O)Nc3cccc(CC(=O)O)c3)o2)c1 [Compound 21]
Found: > 1e-05 M

Lookup: Fill in the recorded Ki for this compound, with human EP4 receptor (Homo sapiens, UniProt P35408) as test system: O=C(O)/C=C/c1cccc(NC(=O)c2ccc(-c3cc(Cl)cc(Cl)c3)o2)c1 [Compound 70]
Found: < 1e-06 M

Lookup: Lab note: need Ki with human EP4 receptor (Homo sapiens, UniProt P35408) for entry O=C(O)/C=C/c1cccc(NC(=O)c2ccc(-c3cc(C(F)(F)F)cc(C(F)(F)F)c3)o2)c1 [Compound 102] , please look it up.
Found: > 1e-05 M

Lookup: Enter reported Ki observed with human EP4 receptor (Homo sapiens, UniProt P35408) for O=C(O)/C=C/c1cccc(NC(=O)c2ccc(-c3ccccc3)o2)c1 [Compound 61]
Found: < 1e-06 M

Lookup: For the record O=C(O)CCc1cccc(NC(=O)c2cccc(-c3ccc(F)cc3)n2)c1 [Compound 159] , what value of Ki is listed for human EP4 receptor (Homo sapiens, UniProt P35408)?
Found: > 1e-05 M

Lookup: // map O=C(O)/C=C/c1cccc(OCc2csc(-c3ccccc3)n2)c1 [Compound 121] to recorded Ki (system: human EP4 receptor (Homo sapiens, UniProt P35408))
Found: > 1e-05 M

Lookup: Notebook: pull reported Ki for human EP4 receptor (Homo sapiens, UniProt P35408), entry CN(C)c1ccc(-c2ccc(C(=O)Nc3cccc(CC(=O)O)c3)o2)cc1 [Compound 14]
Found: > 1e-05 M

Lookup: What reported Ki corresponds to O=C(Nc1cccc(OCc2nnn[nH]2)c1)c1ccc(-c2ccccc2)o1 [Compound 173] on human EP4 receptor (Homo sapiens, UniProt P35408)?
Found: > 1e-05 M

Lookup: Give human EP4 receptor (Homo sapiens, UniProt P35408) Ki for O=C(O)/C=C/c1cccc(NC(=O)c2ccc(-c3ccc(F)cc3)o2)c1 [Compound 71]
Found: > 1e-05 M

Lookup: Which measured Ki belongs to CC(C)c1cccc(-c2ccc(C(=O)Nc3cccc(CC(=O)O)c3)o2)c1 [Compound 34] , tested on human EP4 receptor (Homo sapiens, UniProt P35408)?
Found: < 1e-06 M

Lookup: Query Ki on human EP4 receptor (Homo sapiens, UniProt P35408) for O=C(Nc1cccc(-c2nnn[nH]2)c1)c1ccc(-c2ccccc2)o1 [Compound 177]
Found: > 1e-05 M

Lookup: Request: Ki, test system human EP4 receptor (Homo sapiens, UniProt P35408), entry NC(=O)Cc1cccc(NC(=O)c2ccc(-c3ccccc3)o2)c1 [Compound 73]
Found: > 1e-05 M

Lookup: Kindly state the measured Ki obtained for O=C(O)c1cc2cc(NC(=O)c3ccc(-c4ccccc4)o3)ccc2[nH]1 [Compound 59] with human EP4 receptor (Homo sapiens, UniProt P35408).
Found: > 1e-05 M

Lookup: Item: O=C(Nc1cccc(Cc2nnn[nH]2)c1)c1ccc(-c2cccc(F)c2)o1 [Compound 86] Test system: human EP4 receptor (Homo sapiens, UniProt P35408) Read-out: Ki Value: ?
Found: > 1e-05 M

Lookup: // lookup Ki | system=human EP4 receptor (Homo sapiens, UniProt P35408) | key= O=C(O)COc1cccc(NC(=O)c2ccc(-c3cc(Cl)cc(Cl)c3)o2)c1 [Compound 68]
Found: < 1e-06 M

Lookup: Provide the documented Ki with human EP4 receptor (Homo sapiens, UniProt P35408) as the system for O=C(Nc1ccc2sc(C(=O)O)cc2c1)c1ccc(-c2ccccc2)o1 [Compound 97]
Found: > 1e-05 M

Lookup: Hello, I am looking for reported Ki with human EP4 receptor (Homo sapiens, UniProt P35408) for O=C(O)Cc1ccc(NC(=O)c2ccc(-c3ccccc3)o2)cc1 [Compound 2] . Could you help?
Found: < 1e-05 M

Lookup: GET /values?readout=Ki&system=human EP4 receptor (Homo sapiens, UniProt P35408)&item= O=C(O)CCc1cccc(NC(=O)c2ccc(-c3ccc(F)cc3)o2)c1 [Compound 148]
Found: > 1e-05 M

Lookup: API: value(readout= Ki, system= human EP4 receptor (Homo sapiens, UniProt P35408), query= O=C(O)Cc1cccc(NC(=O)c2cccc(-c3cccc(Cl)c3)n2)c1 [Compound 129] )
Found: < 1e-06 M

Lookup: Hi! What's the reported Ki for O=C(Nc1cccc(/C=C/c2nnn[nH]2)c1)c1cc(-c2ccccc2)ccc1F [Compound 176] on human EP4 receptor (Homo sapiens, UniProt P35408)?
Found: > 1e-05 M

Lookup: Provide value of Ki for this record tested with human EP4 receptor (Homo sapiens, UniProt P35408): O=C(O)Cc1cccc(NC(=O)c2ccc(-c3ccccc3C(F)(F)F)o2)c1 [Compound 23]
Found: > 1e-05 M

Lookup: Can you look up Ki on human EP4 receptor (Homo sapiens, UniProt P35408) for O=C(O)Cc1cccc(NC(=O)c2ccc(-c3ccco3)o2)c1 [Compound 38] ?
Found: > 1e-05 M

Lookup: API: value(readout=Ki, system=human EP4 receptor (Homo sapiens, UniProt P35408)) for record O=C(O)/C=C/c1cccc(NC(=O)c2cc(-c3cc(Cl)cc(Cl)c3)ccc2F)c1 [Compound 144]
Found: < 1e-06 M

Lookup: Item: O=C(O)Cc1cccc(NC(=O)c2ccc(-c3cccc(F)c3)o2)c1 [Compound 128] Test system: human EP4 receptor (Homo sapiens, UniProt P35408) Read-out: Ki Value: ?
Found: > 1e-05 M

Lookup: Return Ki measured with human EP4 receptor (Homo sapiens, UniProt P35408) given this compound: CC(=O)c1ccc(-c2ccc(C(=O)Nc3cccc(CC(=O)O)c3)o2)cc1 [Compound 20]
Found: > 1e-05 M

Lookup: Form field - read-out: Ki; system: human EP4 receptor (Homo sapiens, UniProt P35408); submitted item: O=C(O)/C=C/c1cccc(NC(=O)c2cc(-c3cccc(Cl)c3)ccc2F)c1 [Compound 142]
Found: > 1e-05 M

Lookup: # returns recorded Ki (system: human EP4 receptor (Homo sapiens, UniProt P35408)) for O=C(O)/C=C/c1cccc(NC(=O)c2ccc(-c3cccc(F)c3)o2)c1 [Compound 100]
Found: < 1e-05 M

Lookup: State its Ki on human EP4 receptor (Homo sapiens, UniProt P35408): O=C(O)CCc1cccc(NC(=O)c2ccc(-c3cc(Cl)cc(Cl)c3)o2)c1 [Compound 126]
Found: < 1e-06 M

Lookup: Form entry - test system: human EP4 receptor (Homo sapiens, UniProt P35408); read-out: Ki; compound: O=C(O)/C=C/c1cccc(NC(=O)c2ccc(-c3ccc4c(c3)OCO4)o2)c1 [Compound 101]
Found: > 1e-05 M

Lookup: Tell me reported Ki for O=C(O)/C=C/c1cccc(NC(=O)c2ccc(-c3cccc(OCc4ccccc4)c3)o2)c1 [Compound 104] , tested with human EP4 receptor (Homo sapiens, UniProt P35408).
Found: > 1e-05 M

Lookup: Lab note: need Ki for O=C(O)Cc1cccc(NC(=O)c2ccc(-c3ccc(F)cc3)o2)c1 [Compound 42] on human EP4 receptor (Homo sapiens, UniProt P35408), anyone have it?
Found: > 1e-05 M

Where do the numbers come from? From patent US7326732B2.
